Target: SIRT2 (Homo sapiens, UniProt Q8IXJ6)
Sequence (Q8IXJ6 whole entry): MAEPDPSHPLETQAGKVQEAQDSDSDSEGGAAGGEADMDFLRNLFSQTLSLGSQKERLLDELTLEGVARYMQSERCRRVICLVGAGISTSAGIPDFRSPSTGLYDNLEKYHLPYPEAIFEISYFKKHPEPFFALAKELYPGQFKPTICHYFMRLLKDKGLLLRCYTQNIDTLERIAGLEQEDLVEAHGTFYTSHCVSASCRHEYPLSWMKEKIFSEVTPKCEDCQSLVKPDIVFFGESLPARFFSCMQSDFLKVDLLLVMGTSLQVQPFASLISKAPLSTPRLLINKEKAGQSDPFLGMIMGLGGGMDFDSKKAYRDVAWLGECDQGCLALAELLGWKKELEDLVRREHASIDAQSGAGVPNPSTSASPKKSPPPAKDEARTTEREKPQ
Assay notes: SIRT2 deacetylation of Trp 5-mer peptide, OAADPr mass spec assay
Type: biochemical
Parameters: His-SIRT2(1-389)
Condition context: Trp 5-mer peptide; class symbols; read-out: Trp SIRT2_IC50
pIC50: −log10 of the molar value.
Readout kind: pIC50

Record excerpt, results attached:
Provide SIRT2 (Homo sapiens, UniProt Q8IXJ6) pIC50 reading for CC(C)(C)C(=O)NCCCC1CCN(c2ncnc3cc(C(N)=O)sc23)CC1 .
> 6.00

Provide SIRT2 (Homo sapiens, UniProt Q8IXJ6) pIC50 reading for CCNC(=O)c1cccc(C(=O)NCCN2CCN(c3ncnc4cc(C(N)=O)sc34)CC2)c1 [Compound 11b] .
> 6.00

Provide SIRT2 (Homo sapiens, UniProt Q8IXJ6) pIC50 reading for Cc1c(C(N)=O)sc2c(N3CCC(CCN)CC3)ncnc12 .
5.00 to 6.00

Provide SIRT2 (Homo sapiens, UniProt Q8IXJ6) pIC50 reading for Cc1c(C(N)=O)sc2c(N3CCC(CCNC(=O)C(C)(C)C)CC3)ncnc12 .
> 6.00

Provide SIRT2 (Homo sapiens, UniProt Q8IXJ6) pIC50 reading for NCCNC(=O)c1cccc(C(=O)NCCN2CCN(c3ncnc4ccsc34)CC2)c1 .
< 5.00

Provide SIRT2 (Homo sapiens, UniProt Q8IXJ6) pIC50 reading for CS(=O)(=O)NCCN1CCN(c2ncnc3cc(C(N)=O)sc23)CC1 [Compound 32, 2,2,2-trifluoroacetate] .
> 6.00

Provide SIRT2 (Homo sapiens, UniProt Q8IXJ6) pIC50 reading for NC(=O)c1cc2ncnc(N3CCN(CCNC(=O)C4CCCC4)CC3)c2o1 .
> 6.00

Provide SIRT2 (Homo sapiens, UniProt Q8IXJ6) pIC50 reading for CC(=O)NCCC1CCN(c2ncnc3cc(C(N)=O)sc23)CC1 .
> 6.00

Others:
Provide SIRT2 (Homo sapiens, UniProt Q8IXJ6) pIC50 reading for NCCC1CCN(c2ncnc3cc(C(N)=O)oc23)CC1 .
> 6.00

Provide SIRT2 (Homo sapiens, UniProt Q8IXJ6) pIC50 reading for NC(=O)c1cc2ncnc(N3CCC4(CCNC4)CC3)c2s1 .
5.00 to 6.00

====

Target: SIRT2 (Homo sapiens)
Assay notes: SIRT2 deacetylation of Trp 5-mer peptide, OAADPr mass spec assay
Assay type: biochemical
Parameters: His-SIRT2(1-389)
Condition context: Trp 5-mer peptide; class symbols; read-out: Trp SIRT2_IC50
Form field: IC50 (one value per entry).

Please report IC50 for the following compound: NC(=O)c1cc2ncnc(N3CCN(CCO)CC3)c2s1
< 1 µM

Others:
Please report IC50 for the following compound: CC(C)(C)C(=O)NCCC1CCN(c2ncnc3cc(C(=O)O)sc23)CC1 [Compound 40, 2,2,2-trifluoroacetate]
> 10 µM

Please report IC50 for the following compound: CS(=O)(=O)NCCN1CCN(c2ncnc3cc(C(N)=O)oc23)CC1
< 1 µM

Please report IC50 for the following compound: CNC(=O)CC1CCN(c2ncnc3cc(C(N)=O)sc23)CC1
1 to 10 µM

Please report IC50 for the following compound: Cc1nc(N2CCN(CCN3CCCC3)CC2)c2sc(C(N)=O)cc2n1
1 to 10 µM

Please report IC50 for the following compound: CC(C)(C)C(=O)NCCN1CCN(c2nccc3cc(C(N)=O)sc23)CC1
1 to 10 µM

Please report IC50 for the following compound: NC(=O)c1cc2ncnc(N3CCC(CCN4CCCC4)CC3)c2s1
< 1 µM

Please report IC50 for the following compound: CC(C)(C)OC(=O)NCCC1CCN(c2ccnc3cc(C(N)=O)sc23)CC1
< 1 µM
